# maps each entry to its Mono
- Organism: Rattus norvegicus
- testProtocol: Open TG-GATES - Regimen: Daily Repeat
- Format: toxicity, organism-based, Sprague-Dawley
- Design: regimen Daily Repeat, gender Male, age 6 weeks
- statedConditions: in vivo, po, 0 mg/kg, […], tissue Blood, route gavage, dose level Control, time 28 day

compound: CS(=O)(=O)Nc1ccc([N+](=O)[O-])cc1Oc1ccccc1 [NIMESULIDE]
readoutUnits: %
Mono: 5.8
--
compound: O=C1CN(/N=C/c2ccc(-c3ccc([N+](=O)[O-])cc3)o2)C(O)=N1
readoutUnits: %
Mono: 4.6
--
compound: Cc1cnc(NC(=O)C2=C(O)c3ccccc3S(=O)(=O)N2C)s1
readoutUnits: %
Mono: 1.5
--
compound: Cc1cccc(Nc2cc(Cl)nc(SCC(=O)O)n2)c1C
readoutUnits: %
Mono: 2.4
--
compound: O=C1NC(=O)C(c2ccccc2)(c2ccccc2)N1
readoutUnits: %
Mono: 1.6

---

- Species on record: Rattus norvegicus
- testProtocol: Open TG-GATES - Regimen: Daily Repeat
- Format: toxicity, organism-based, Sprague-Dawley
- Parameters: regimen Daily Repeat, gender Male, age 6 weeks
- statedConditions: in vivo, po, 0 mg/kg, […], tissue Plasma, route gavage, dose level Control, time 14 day

compound: COc1ccc(O)c(C(C)(C)C)c1.COc1ccc(O)cc1C(C)(C)C [BUTYLATED HYDROXYANISOLE]
PL [mg/dL]: 137
--
compound: C=CCO
PL [mg/dL]: 141.2
--
compound: O=C1NC(=O)C(c2ccccc2)(c2ccccc2)N1
PL [mg/dL]: 147.4
--
compound: Cc1cccc(Nc2cc(Cl)nc(SCC(=O)O)n2)c1C
PL [mg/dL]: 139.6
--
compound: COc1ccc(Cl)cc1C(=O)NCCc1ccc(S(=O)(=O)NC(=O)NC2CCCCC2)cc1 [GLYBURIDE]
PL [mg/dL]: 155.2
--
compound: CS(=O)(=O)Nc1ccc([N+](=O)[O-])cc1Oc1ccccc1 [NIMESULIDE]
PL [mg/dL]: 141
--
compound: O=C1CN(/N=C/c2ccc(-c3ccc([N+](=O)[O-])cc3)o2)C(O)=N1
PL [mg/dL]: 139.2
--
compound: Cn1cnc([N+](=O)[O-])c1Sc1ncnc2nc[nH]c12
PL [mg/dL]: 135.6
--
compound: O=P1(N(CCCl)CCCl)NCCCO1 (centres undefined) [CYCLOPHOSPHAMIDE ANHYDROUS]
PL [mg/dL]: 140.4

---

- Species: Rattus norvegicus
- testProtocol: Open TG-GATES - Regimen: Single
- Type: toxicity, organism-based, Sprague-Dawley
- Design: regimen Single, gender Male, age 6 weeks
- statedConditions: in vivo, po, 0 mg/kg, 3 h, tissue Blood, route gavage, dose level Control
measure: Ret (%)

compound: Cc1cnc(NC(=O)C2=C(O)c3ccccc3S(=O)(=O)N2C)s1 [MELOXICAM]
measurement: 7
--
compound: COc1ccc(Cl)cc1C(=O)NCCc1ccc(S(=O)(=O)NC(=O)NC2CCCCC2)cc1 [GLYBURIDE]
measurement: 8
--
compound: COc1ccc(O)c(C(C)(C)C)c1.COc1ccc(O)cc1C(C)(C)C [BUTYLATED HYDROXYANISOLE]
measurement: 7.8
--
compound: CS(=O)(=O)Nc1ccc([N+](=O)[O-])cc1Oc1ccccc1 [NIMESULIDE]
measurement: 10.6
--
compound: CNCCC(Oc1ccc(C(F)(F)F)cc1)c1ccccc1.Cl (stereo unspecified) [FLUOXETINE HYDROCHLORIDE]
measurement: 8.8
--
compound: Cc1cccc(Nc2cc(Cl)nc(SCC(=O)O)n2)c1C [PIRINIXIC ACID]
measurement: 7.4

---

- Organism: Rattus norvegicus
- testProtocol: Open TG-GATES - Regimen: Single
- Assay type: toxicity, organism-based, Sprague-Dawley
- Parameters: regimen Single, gender Male, age 6 weeks
- statedConditions: in vivo, po, 0 mg/kg, 6 h, tissue Blood, route gavage, dose level Control
measure: Eos

compound: COc1ccc(O)c(C(C)(C)C)c1.COc1ccc(O)cc1C(C)(C)C [BUTYLATED HYDROXYANISOLE]
measurement: 0.7%
//
compound: CNCCC(Oc1ccc(C(F)(F)F)cc1)c1ccccc1.Cl (stereo unspecified) [FLUOXETINE HYDROCHLORIDE]
measurement: 1%
//
compound: CS(=O)(=O)Nc1ccc([N+](=O)[O-])cc1Oc1ccccc1 [NIMESULIDE]
measurement: 1%
//
compound: COc1ccc(Cl)cc1C(=O)NCCc1ccc(S(=O)(=O)NC(=O)NC2CCCCC2)cc1 [GLYBURIDE]
measurement: 1%
//
compound: O=C1CN(/N=C/c2ccc(-c3ccc([N+](=O)[O-])cc3)o2)C(O)=N1
measurement: 1%
//
compound: Cc1cnc(NC(=O)C2=C(O)c3ccccc3S(=O)(=O)N2C)s1
measurement: 0.6%
//
compound: Cc1cccc(Nc2cc(Cl)nc(SCC(=O)O)n2)c1C
measurement: 0.6%
//
compound: Cn1cnc([N+](=O)[O-])c1Sc1ncnc2nc[nH]c12
measurement: 1%
//
compound: C=CCO
measurement: 1%
//
compound: O=C1NC(=O)C(c2ccccc2)(c2ccccc2)N1
measurement: 0.8%
//
compound: S=C=Nc1cccc2ccccc12 [1-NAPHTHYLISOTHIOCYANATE]
measurement: 0.8%

---

- Species on record: Rattus norvegicus
- testProtocol: Open TG-GATES - Regimen: Daily Repeat
- Type: toxicity, organism-based, Sprague-Dawley
- Parameters: regimen Daily Repeat, gender Male, age 6 weeks
- statedConditions: in vivo, po, 0 mg/kg, […], tissue Plasma, route gavage, dose level Control, time 14 day
Hi! Could you tag entries with TG below 100 mg/dL as YES, and those at or above as NO? Much appreciated.

compound: O=C1NC(=O)C(c2ccccc2)(c2ccccc2)N1 [PHENYTOIN]
assignedLabel: NO
//
compound: COc1ccc(Cl)cc1C(=O)NCCc1ccc(S(=O)(=O)NC(=O)NC2CCCCC2)cc1 [GLYBURIDE]
assignedLabel: NO
//
compound: CS(=O)(=O)Nc1ccc([N+](=O)[O-])cc1Oc1ccccc1 [NIMESULIDE]
assignedLabel: NO
//
compound: O=C1CN(/N=C/c2ccc(-c3ccc([N+](=O)[O-])cc3)o2)C(O)=N1 [DANTROLENE]
assignedLabel: YES

---

# maps each entry to its RALB
- Species on record: Rattus norvegicus
- testProtocol: Open TG-GATES - Regimen: Daily Repeat
- Format: toxicity, organism-based, Sprague-Dawley
- Parameters: regimen Daily Repeat, gender Male, age 6 weeks
- statedConditions: in vivo, po, 0 mg/kg, […], tissue Plasma, route gavage, dose level Control, time 28 day

compound: COc1ccc(Cl)cc1C(=O)NCCc1ccc(S(=O)(=O)NC(=O)NC2CCCCC2)cc1 [GLYBURIDE]
readoutUnits: g/dL
RALB: 3.5

compound: CS(=O)(=O)Nc1ccc([N+](=O)[O-])cc1Oc1ccccc1 [NIMESULIDE]
readoutUnits: g/dL
RALB: 4.1

compound: O=C1NC(=O)C(c2ccccc2)(c2ccccc2)N1
readoutUnits: g/dL
RALB: 3

compound: Cn1c(=O)c2c(ncn2C)n(C)c1=O
readoutUnits: g/dL
RALB: 3.1

compound: Cc1cccc(Nc2cc(Cl)nc(SCC(=O)O)n2)c1C
readoutUnits: g/dL
RALB: 2.8

compound: Cc1cnc(NC(=O)C2=C(O)c3ccccc3S(=O)(=O)N2C)s1
readoutUnits: g/dL
RALB: 3.5

compound: O=P1(N(CCCl)CCCl)NCCCO1 (stereo unspecified) [CYCLOPHOSPHAMIDE ANHYDROUS]
readoutUnits: g/dL
RALB: 3.1

compound: O=C1CN(/N=C/c2ccc(-c3ccc([N+](=O)[O-])cc3)o2)C(O)=N1
readoutUnits: g/dL
RALB: 3.8

compound: C=CCO
readoutUnits: g/dL
RALB: 3.5

compound: Cn1cnc([N+](=O)[O-])c1Sc1ncnc2nc[nH]c12
readoutUnits: g/dL
RALB: 3.1

compound: COc1ccc(O)c(C(C)(C)C)c1.COc1ccc(O)cc1C(C)(C)C [BUTYLATED HYDROXYANISOLE]
readoutUnits: g/dL
RALB: 2.6

---

# maps each entry to its MCV
- Organism: Rattus norvegicus
- testProtocol: Open TG-GATES - Regimen: Daily Repeat
- Type: toxicity, organism-based, Sprague-Dawley
- Design: regimen Daily Repeat, gender Male, age 6 weeks
- statedConditions: in vivo, po, 0 mg/kg, 72 h, tissue Blood, route gavage, dose level Control, time 3 day

compound: Cn1c(=O)c2c(ncn2C)n(C)c1=O [CAFFEINE]
MCV / fL: 63.7
//
compound: Cc1cnc(NC(=O)C2=C(O)c3ccccc3S(=O)(=O)N2C)s1 [MELOXICAM]
MCV / fL: 62.4
//
compound: Cc1cccc(Nc2cc(Cl)nc(SCC(=O)O)n2)c1C [PIRINIXIC ACID]
MCV / fL: 64.7
//
compound: Cn1cnc([N+](=O)[O-])c1Sc1ncnc2nc[nH]c12 [AZATHIOPRINE]
MCV / fL: 63.1
//
compound: O=P1(N(CCCl)CCCl)NCCCO1 (stereo unspecified) [CYCLOPHOSPHAMIDE ANHYDROUS]
MCV / fL: 65.7
//
compound: COc1ccc(O)c(C(C)(C)C)c1.COc1ccc(O)cc1C(C)(C)C [BUTYLATED HYDROXYANISOLE]
MCV / fL: 61.5
//
compound: CS(=O)(=O)Nc1ccc([N+](=O)[O-])cc1Oc1ccccc1 [NIMESULIDE]
MCV / fL: 62.8
//
compound: O=C1NC(=O)C(c2ccccc2)(c2ccccc2)N1 [PHENYTOIN]
MCV / fL: 64.2
//
compound: C=CCO [ALLYL ALCOHOL]
MCV / fL: 62.1
//
compound: O=C1CN(/N=C/c2ccc(-c3ccc([N+](=O)[O-])cc3)o2)C(O)=N1 [DANTROLENE]
MCV / fL: 64.2
//
compound: COc1ccc(Cl)cc1C(=O)NCCc1ccc(S(=O)(=O)NC(=O)NC2CCCCC2)cc1 [GLYBURIDE]
MCV / fL: 63.5

Values compiled from ChEMBL document CHEMBL3885861.
